Ref: patent US11466044B2

Please respond with reported MIC for every item in the list.
system: P aeruginosa; assay: MIC by broth microdilution, P aeruginosa isolates; type: cell-based, Pseudomonas aeruginosa; settings: strain AG220 Pseudomonas aeruginosa ATCC27853; read-out: MIC AG220 P. aerugin
Structures can show the parent of a compound that is named as a salt.

Log: P aeruginosa, compound CC1CC(O)C2O[C@H](O[C@@H]3C(N)C[C@@H](N)C(O)[C@H]3O[C@@H]3O[C@H](CO)[C@H](O[C@H]4O[C@@H](CN)[C@@H](O)C(O)C4N)C3O)C(N)[C@@H](O)[C@@H]2O1 (stereo partly drawn) [Compound 125] , MIC = 8 µg/mL

Log: P aeruginosa, compound CC1CC(N)C2O[C@H](O[C@@H]3C(N)C[C@@H](N)C(O)[C@H]3O[C@@H]3O[C@H](CO)[C@H](O[C@H]4O[C@@H](CN)[C@@H](O)C(O)C4N)C3O)C(N)[C@@H](O)[C@@H]2O1 (stereo partly drawn) [Compound 139] , MIC = 16 to 32 µg/mL

Log: P aeruginosa, compound CNC1C(OC2C(N)CC(N)C(O)C2OC2OC(CO)C(OC3OC(CN)C(O)C(O)C3N)C2O)OC(CN)C(O)C1O (stereo not drawn) [Compound 171, 2′-N-Methyl-neomycin acetate salt] , MIC = > 64 µg/mL

###

test system: E coli carrying specific resistance determinants; experiment: MIC by broth microdilution, E coli carrying specific resistance determinants; assay type: cell-based; settings: Escherichia coli, read-out: MIC AG003 E. coli AAC(3)-II
readoutName: MIC (µg/mL)
Enter your answer as a number in µg/mL; do not include the unit.

For reference, reported MIC for CNC1C(OC2C(N)CC(N)C(O)C2OC2OC(CO)C(O)C2O)OC(CN)C(O)C1O (stereo not shown) stands at 64

For reference, reported MIC for NC[C@H]1O[C@H](O[C@H]2[C@H](O[C@@H]3O[C@H](CO)[C@@H](O)[C@H]3O)[C@@H](O)[C@H](N)C[C@@H]2N)[C@H](N)[C@@H](O)[C@@H]1O [Ribostamycin, ribostamycin, reference compound] stands at 4

###

test system: E coli wild type; test: MIC by broth microdilution, wild type E coli; assay type: cell-based; conditions: Escherichia coli, clinical isolate AG055; Table 1 (Example 3); read-out: MIC E coli AG055
Counter-ions that a name gives are not always drawn.
readoutName: MIC (µg/mL)
Enter your answer as a number in µg/mL; do not include the unit.

For reference, reported MIC for NC[C@@H]1O[C@H](O[C@H]2[C@@H](O)[C@H](O[C@@H]3[C@@H](O)[C@H](N)C[C@H](N)[C@H]3O[C@H]3O[C@H](CO)[C@@H](O)[C@H](O)[C@H]3N)O[C@@H]2CO)[C@H](N)[C@@H](O)[C@@H]1O [paromomycin, reference compound] stands at 8

For reference, reported MIC for NCC1OC(OC2C(N)CC(N)C(O)C2OC2OC(CO)C(OC3OC(CN)C(O)C(O)C3N)C2O)CC(O)C1O (stereo not drawn) [Compound 173, 2′-Deamino-neomycin acetate salt] stands at 2

For reference, reported MIC for NCC1OC(OC2C(CO)OC(OC3C(O)C(N)CC(N)C3OC3OC(CN)C(O)C(O)C3NC=O)C2O)C(N)C(O)C1O (stereo not drawn) stands at 2
